Each entry below carries its reported pIC50.
tested on: MCF7; assay: Antiproliferative activity against human MCF7 cells assessed as reduction in cell viability measured after 24 hrs by MTT assay; assay type: functional, cell-based; settings: MCF7, 24 h
By convention, pIC50 is the negative base-10 log of a molar concentration.

The cases that follow already have their pIC50 on record.
structure smiles: Fc1ccc(Oc2cccc(CNc3cc4c(cn3)[nH]c3ccccc34)c2)cc1
pIC50: 7.57
--
structure smiles: FC(F)(F)c1ccc(Oc2cccc(CNc3cc4c(cn3)[nH]c3ccccc34)c2)cc1
pIC50: 7.17

Read the next record carefully.
Exam item: Quick check: pIC50 of "COc1ccc(Oc2cccc(CNc3cc4c(cn3)[nH]c3ccccc34)c2)cc1OC" ?
Marked response: 6.36
